The reported numbers originate from ChEMBL document CHEMBL3856221.

- SYSTEM_UNDER_TEST: 5-hydroxytryptamine receptor 6 (Homo sapiens)
- Sequence (P50406 whole entry): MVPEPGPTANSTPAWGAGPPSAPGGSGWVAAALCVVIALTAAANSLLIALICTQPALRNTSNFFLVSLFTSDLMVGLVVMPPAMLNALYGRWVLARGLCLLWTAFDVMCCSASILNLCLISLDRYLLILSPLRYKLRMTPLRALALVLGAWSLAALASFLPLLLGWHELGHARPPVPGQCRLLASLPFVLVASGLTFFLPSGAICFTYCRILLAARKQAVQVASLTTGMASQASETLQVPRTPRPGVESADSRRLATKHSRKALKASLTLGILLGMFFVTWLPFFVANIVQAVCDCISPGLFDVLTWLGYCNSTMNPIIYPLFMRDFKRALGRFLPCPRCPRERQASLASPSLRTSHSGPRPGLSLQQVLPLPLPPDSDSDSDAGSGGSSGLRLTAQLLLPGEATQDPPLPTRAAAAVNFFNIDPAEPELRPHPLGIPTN
- PROTOCOL: Displacement of [3H]-LSD from human 5-HT6 receptor expressed in HEK293 cell membranes after 1 hr by microbeta counting analysis
pKi: −log10 of the molar value.
MEASURED_PROPERTY: pKi

// worked examples, pKi included
[[record]]
query_smiles = "COc1ccc(-c2ccccc2N2CCN(CCCCCC(=O)N[C@H](C)c3ccccc3)CC2)cc1"
reading = 6.14

[[record]]
query_smiles = "N#Cc1ccc(CNC(=O)CCOCCN2CCN(c3ccccc3-c3ccccc3)CC2)cc1"
reading = 6.83

[[record]]
query_smiles = "C[C@@H]1CN(c2ccccc2-c2ccccc2)CCN1CCCCCC(=O)NCc1ccccc1"
reading = 6.36

[[record]]
query_smiles = "O=C(CCOCCN1CCN(c2ccccc2-c2ccccc2)CC1)NCc1ccncc1"
reading = 5.60

[[record]]
query_smiles = "COc1ccc(-c2ccccc2N2CCN(CCCCCC(=O)N[C@@H](C)c3ccc(C#N)cc3)CC2)cc1"
reading = 6.15


I. O=C(CCOCCN1CCN(c2ncccc2-c2ccccc2)CC1)NCc1ccc(C(F)(F)F)cc1
II. N#Cc1ccc(CNC(=O)CCOCCN2CCN(c3cccnc3-c3ccccc3)CC2)cc1
Ask | Higher pKi: I or II ? Identify your pick by its label.
Reply | I
(I: 5.98, II: 5.46)

====

- PROTOCOL: Displacement of [3H]-prazosin from adrenergic alpha 1 receptor in pig brain cortical membranes after 50 mins by microbeta counting analysis
- Type: ADME, cell membranes, Sus scrofa
MEASURED_PROPERTY: Ki (nM)

a. O=C(CCOCCN1CCN(c2ncccc2-c2ccc(F)cc2)CC1)NCc1ccc(C(F)(F)F)cc1
b. O=C(CCCCCN1CCN(c2ccccc2-c2ccccc2)CC1)NCc1ccc(OCCN2CCOCC2)cc1
Ask | // select label with min value of measured Ki from [ a , b ] Please respond with the label that marks your chosen entry.
Reply | b

====

- PROTOCOL: Stability in mouse liver microsomes assessed as oxidative metabolism by measuring drug recovery at 10 uM preincubated for 10 mins followed by NADPH addition measured after 30 mins by liquid chromatographic method
- Assay type: ADME
- MEASUREMENT_PARAMETERS: liver microsomes, read-out: Drug recovery
MEASURED_PROPERTY: remaining at 0.5 h, 10 µM (%)

Solved cases below.
[[record]]
query_smiles = "O=C(CCOCCN1CCN(c2ccccc2-c2ccccc2)CC1)NCc1ccc(C(F)(F)F)cc1"
unit_text = "%"
reading = 3

[[record]]
query_smiles = "COc1ccc(-c2ccccc2N2CCN(CCCCCC(=O)NCc3cccnc3)CC2)cc1"
unit_text = "%"
reading = 32

[[record]]
query_smiles = "N#Cc1ccc(CNC(=O)CCOCCN2CCN(c3ccccc3-c3ccccc3)CC2)cc1"
unit_text = "%"
reading = 5

[[record]]
query_smiles = "COc1ccc(-c2ccccc2N2CCN(CCCCCC(=O)N[C@@H](C)c3ccc(C#N)cc3)CC2)cc1"
unit_text = "%"
reading = 24

[[record]]
query_smiles = "C[C@@H]1CN(c2ccccc2-c2ccccc2)CCN1CCCCCC(=O)NCc1ccccc1"
unit_text = "%"
reading = 3


P. COc1ccc(-c2ccccc2N2CCN(CCOCCC(=O)NCc3ccncc3)CC2)cc1
Q. O=C(CCCCCN1CCN(c2ccccc2-c2ccccc2)CC1)NCc1ccc(OCCCN2CCOCC2)cc1
R. N#Cc1ccc(CNC(=O)CCOCCN2CCN(c3cccnc3-c3ccccc3)CC2)cc1
Ask | hey, can you rank those compounds up there by remaining at 0.5 h, 10 µM? biggest number first please I'd appreciate it if you listed the labels in the requested order.
Reply | P, Q, R
